study_target: Human TRPC6 (Homo sapiens, UniProt Q9Y210)
Construct: expressed in transfected cells
Sequence (Q9Y210 whole entry): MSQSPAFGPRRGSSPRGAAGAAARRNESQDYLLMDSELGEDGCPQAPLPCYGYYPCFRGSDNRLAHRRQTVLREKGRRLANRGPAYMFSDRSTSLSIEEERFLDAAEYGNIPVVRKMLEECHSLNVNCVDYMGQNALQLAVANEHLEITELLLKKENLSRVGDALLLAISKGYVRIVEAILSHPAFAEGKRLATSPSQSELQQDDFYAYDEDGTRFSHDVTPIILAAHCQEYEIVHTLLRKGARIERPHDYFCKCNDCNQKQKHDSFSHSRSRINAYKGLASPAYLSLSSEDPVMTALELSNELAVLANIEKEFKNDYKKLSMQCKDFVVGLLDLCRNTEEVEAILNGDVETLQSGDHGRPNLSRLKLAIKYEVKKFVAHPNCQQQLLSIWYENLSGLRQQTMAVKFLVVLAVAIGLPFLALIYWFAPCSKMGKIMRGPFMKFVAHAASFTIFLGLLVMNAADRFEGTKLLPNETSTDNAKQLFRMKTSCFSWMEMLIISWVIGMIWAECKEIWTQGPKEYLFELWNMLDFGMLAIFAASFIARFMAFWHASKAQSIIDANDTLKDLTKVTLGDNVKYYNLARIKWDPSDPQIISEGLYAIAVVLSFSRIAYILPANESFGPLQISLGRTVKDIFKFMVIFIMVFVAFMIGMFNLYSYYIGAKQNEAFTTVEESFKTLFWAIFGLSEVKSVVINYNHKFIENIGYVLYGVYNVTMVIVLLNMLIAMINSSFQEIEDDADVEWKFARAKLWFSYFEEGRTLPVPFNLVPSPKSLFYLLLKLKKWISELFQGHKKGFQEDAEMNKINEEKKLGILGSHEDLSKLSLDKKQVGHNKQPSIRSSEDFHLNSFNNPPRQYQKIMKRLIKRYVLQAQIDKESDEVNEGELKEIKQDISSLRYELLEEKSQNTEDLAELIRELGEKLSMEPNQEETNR
experiment_summary: Evaluation of TRPC6 channel inhibitory activity (1), FLIPR Calcium 5 Assay Kit, OAG stimulation (Compound Nos. 1-1293)
Type: cell-based
measurement_conditions: Human TRPC6 stably-expressing cells, OAG 30 μM, FLIPR Calcium 5 Assay Kit; read-out: Inhibitory activity (pIC50 class) (converted)
IC50 values, listed per item

molecule: Cc1sc(N2CCOCC2)nc1C(=O)c1cc(C#N)ccc1-c1ccc(CN)cn1 [compound 1067]
readout_kind: IC50
recorded_result: > 1000 nM

Enter recorded IC50 with Human TRPC6 (Homo sapiens, UniProt Q9Y210) for Cn1nc(C2CC2)cc1Oc1cc(C#N)ccc1-c1ccc([C@H](O)CN)cn1 [compound 375] here.
< 10 nM

Enter recorded IC50 with Human TRPC6 (Homo sapiens, UniProt Q9Y210) for Cn1nc(N2CCCCC2)cc1Cc1cc(C#N)ccc1-c1ccc(CCN)cn1 [compound 1219] here.
< 10 nM

Enter recorded IC50 with Human TRPC6 (Homo sapiens, UniProt Q9Y210) for Cn1nc(C2CC2)cc1Oc1cc(C#N)ccc1-c1ccc(NC(=O)C2CCNCC2)cn1 [compound 781] here.
> 1000 nM
